Give measured IC50 for each item. Keep answers brief.
- Test system: A549
- assay_notes: Cytotoxicity against human A549 cells assessed as reduction in cell viability after 48 hrs by MTT assay
- Format: functional, cell-based
- measurement_context: A549, 48 h
Numbers only, in µM.

Value sought for every listed compound: IC50.
1. CC(=O)OC[C@@]1(C)[C@@H]2CC[C@]3(C)[C@H](CC=C4[C@@H]5CC(C)(C)CC[C@]5(C(=O)O)CC[C@]43C)[C@@]2(C)CC[C@@H]1O[C@@H]1OC[C@H](OC(C)=O)[C@H](OC(C)=O)[C@H]1O[C@@H]1O[C@H](C)[C@H](OC(C)=O)[C@@H](OC(C)=O)[C@H]1OC(C)=O
2. C[C@H]1O[C@@H](O[C@H]2[C@H](O[C@H]3CC[C@@]4(C)[C@@H](CC[C@]5(C)[C@@H]4CC=C4[C@@H]6CC(C)(C)CC[C@]6(C(=O)NCCCC(=O)O)CC[C@]45C)[C@]3(C)CO)OC[C@H](O)[C@@H]2O)[C@H](O)[C@H](O)[C@H]1O

1: 72.1; 2: 98.7

Numbers sourced from ChEMBL document CHEMBL4007448.
